B1: PRAME (parent)
chain: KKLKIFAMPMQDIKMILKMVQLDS

# Variants of: B1
# MEASUREMENT NOTES: protein stability index of a GFP-peptide fusion (GPS, HEK-293T) (PSI 1-6); higher = more stable;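 also: lentivirally expressed fusions sorted by FACS into six bins by GFP to DsRed ratio, PSI derived from sequencing read proportions per bin multiplied by bin number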
# CONDITIONS USED: c terminus: a fixed tail appended
PROPERTY: protein stability index
// print number alone

These recorded examples may help you get a feel for the data.
- MUTATION CODE: "Q11N"
  protein stability index: 2.79
- MUTATION CODE: "K1A"
  protein stability index: 3.05
- MUTATION CODE: "L17D"
  protein stability index: 1.88

## Task Fill in: protein stability index of "M15D" is ___
## Result 2.22
